target under test: Scavenger receptor class B member 1 (Mus musculus) (UniProt Q61009)
Sequence (Q61009 whole entry, looked up): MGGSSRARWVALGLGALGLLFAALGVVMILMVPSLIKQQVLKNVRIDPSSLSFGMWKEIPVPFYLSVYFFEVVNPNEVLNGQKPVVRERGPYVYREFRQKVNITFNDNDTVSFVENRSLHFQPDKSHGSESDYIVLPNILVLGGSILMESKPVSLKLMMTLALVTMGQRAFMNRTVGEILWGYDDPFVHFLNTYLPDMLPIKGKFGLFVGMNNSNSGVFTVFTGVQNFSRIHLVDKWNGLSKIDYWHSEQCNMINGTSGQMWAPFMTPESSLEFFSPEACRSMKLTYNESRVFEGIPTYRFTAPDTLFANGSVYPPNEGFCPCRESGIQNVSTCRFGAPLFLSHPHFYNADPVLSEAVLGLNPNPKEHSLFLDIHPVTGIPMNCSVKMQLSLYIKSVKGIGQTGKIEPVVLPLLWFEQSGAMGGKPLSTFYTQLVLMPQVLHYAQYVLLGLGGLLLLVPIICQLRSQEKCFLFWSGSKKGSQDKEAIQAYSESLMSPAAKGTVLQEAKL
protocol: enhancers of DiI-HDL lipid transfer via SR-BI – cell-based, ldlA[mSR-BI] CHO, DiI fluorescence, cherry-pick, dose response (AID 602191);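 further: cell fluorescence from internalized DiI-labeled HDL after washing; 0% = median of DMSO wells and 100% = twice the DMSO signal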
conditions used: ldlA[mSR-BI] CHO cells, 3 h, at 35 µM (top of the series)
Calls of active or inactive are those of the source.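 How the source made its calls: active means fitted curve reaches 40% activation at a concentration no higher than the top valid tested dose; inconclusive means flat fit between 30% and 70% activation, or poor fit; inactive means uptake decrease, flat fit within 30% of zero, the rest.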
Parameter activation (HDL uptake increase): see the listing below.
measurement kind: activation (HDL uptake increase)

- compound: "O=C(CNC(=O)c1ccc(Cl)cc1Cl)OCC(=O)N1CCCC1"
  measured: "-11.8% (inactive)"
- compound: "COc1cccc(CC(=O)Nc2ccccc2C(=O)N2CCOCC2)c1"
  measured: "1.38% (inactive)"
- compound: "CC(OC(=O)c1ccc(S(=O)(=O)N2CCCCC2)cc1)C(=O)Nc1ccc(C(N)=O)cc1 (centres undefined)"
  measured: "0.807% (inactive)"
- compound: "COc1ccc(-n2nc(C(=O)NCC(=O)O)c3ccccc3c2=O)cc1"
  measured: "11.7% (inactive)"
- compound: "Cc1ccc(S(=O)(=O)N(c2cccc(C)c2)C2CCS(=O)(=O)C2)cc1 (centres undefined)"
  measured: "-9.17% (inactive)"
- compound: "O=C(c1ccco1)N1CCN(C(=S)Nc2ccc(F)c(Cl)c2)CC1"
  measured: "-12.3% (inactive)"
- compound: "Cc1ccc(N(CC(=O)NC2CCC(C)CC2)S(=O)(=O)c2cccnc2)cc1 (centres undefined)"
  measured: "6.17% (inactive)"
- compound: "CC(C)C(C)(C#N)NC(=O)CSc1nnc(C(F)(F)F)n1C (centres undefined)"
  measured: "-5.69% (inactive)"
- compound: "Cc1ccc(S(=O)(=O)c2cc(OC(=O)c3ccco3)ccc2OC(=O)c2ccco2)cc1"
  measured: "-6.59% (inactive)"
- compound: "Cc1cc(S(=O)(=O)NCCc2ccccc2)c(C)s1"
  measured: "-1.19% (inactive)"
- compound: "O=C(CCNS(=O)(=O)c1cccs1)N1CCc2ccccc2C1"
  measured: "-0.366% (inactive)"
- compound: "CCOC(=O)N1CCC(N2C(=O)c3ccccc3C2Nc2cc(OC)c(OC)c(OC)c2)CC1 (centres undefined)"
  measured: "13% (inactive)"
- compound: "CCCn1c(N)c(N(CCOC)C(=O)c2ccc(S(=O)(=O)N3CCOCC3)cc2)c(=O)[nH]c1=O"
  measured: "-4.96% (inactive)"
- compound: "COc1ccccc1N(C(=O)c1snc(C(N)=O)c1N)C(C(=O)NCCC(C)C)c1ccco1 (centres undefined)"
  measured: "7.43% (inactive)"
- compound: "Cc1ccc(C2(CC(=O)N3CCCC3)CCOC(C(C)C)C2)cc1 (centres undefined)"
  measured: "-13.4% (inactive)"
- compound: "CCOc1ccc(N(C(=O)c2ccc3c(c2)OCO3)C2C=CS(=O)(=O)C2)cc1 (centres undefined)"
  measured: "-7.61% (inactive)"
- compound: "CCCCNC(=O)CCCCC(=O)N/N=C/c1cccc(Cl)c1"
  measured: "-17.4% (inactive)"
- compound: "CN1CCN(CCC(=O)N2c3ccccc3Sc3ccc(Cl)cc32)CC1"
  measured: "-3.2% (inactive)"
- compound: "CCN1C(=O)C(CC(=O)NC2CCCCC2)N(CC)C1=O (centres undefined)"
  measured: "7.58% (inactive)"
- compound: "CCO[C@H]1OC(C(=O)N2CCOCC2)=C[C@@H](c2ccccc2)[C@@H]1CCCO"
  measured: "-6.57% (inactive)"
- compound: "CCOc1ccc(S(=O)(=O)N2CCN=C2c2ccccc2)c(C)c1C"
  measured: "-9.83% (inactive)"
- compound: "COc1ccccc1Cc1nnnn1CC(=O)O"
  measured: "-7.37% (inactive)"
- compound: "Cn1c(=O)[nH]c(=O)c2c1nc(N1CCN(c3ccccc3)CC1)n2CCSc1ncccn1"
  measured: "2.78% (inactive)"
- compound: "Cc1nc(C2CCCCC2)c(-c2ccccc2)c(N2CCOC2=O)c1C"
  measured: "1.15% (inactive)"
- compound: "CC1CCC(NC(=O)CCNS(=O)(=O)c2ccccc2)CC1 (centres undefined)"
  measured: "10.2% (inactive)"
- compound: "COCCCNC(=O)CCSc1ccc(Cl)cc1"
  measured: "-8.45% (inactive)"
- compound: "O=C(Cn1nc(-c2ccccc2)ccc1=O)Nc1ccc(-n2cnnn2)cc1"
  measured: "12% (inactive)"
- compound: "O=C(COC(=O)c1ccco1)c1ccc(S(=O)(=O)N2CCCCC2)cc1"
  measured: "-16.4% (inactive)"
- compound: "CCCCCC(=O)Nc1cc(S(=O)(=O)N2CCOCC2)ccc1N1CCCCC1"
  measured: "-0.494% (inactive)"
- compound: "Cn1cc(CN2CCC(O)CC2)c(-c2ccc(Oc3ccccc3)cc2)n1"
  measured: "-5.7% (inactive)"
- compound: "O=C(NCc1cccc(Cl)c1)c1ccc(CS(=O)Cc2ccccc2Cl)o1 (centres undefined)"
  measured: "0.636% (inactive)"
- compound: "CC(=O)N1C2CCCCC2S[C@H]2CCCCC21 (some centres undefined)"
  measured: "-4.16% (inactive)"
- compound: "CN(C)CCCNC(=O)Cc1ccc(Br)cc1"
  measured: "0.791% (inactive)"
- compound: "NCCCC[C@H]1CNC(=O)C(=O)N1CCc1cccc2ccccc12"
  measured: "-5.05% (inactive)"
- compound: "CN1CCN(CCC(=O)Nc2ccccc2Cl)CC1"
  measured: "-8.52% (inactive)"
- compound: "Cc1cc(Cl)ccc1OCC(=O)OCC(=O)N1CCC(C(N)=O)CC1"
  measured: "-16.7% (inactive)"
- compound: "COc1ccc(C(=O)N2CCNC(=O)C2)cc1S(=O)(=O)Nc1ccc(Br)cc1"
  measured: "-3.81% (inactive)"
- compound: "CCc1nc(SCC(=O)Nc2ccc([N+](=O)[O-])cc2)n[nH]1"
  measured: "-10.4% (inactive)"
- compound: "O=C(CNC(=O)c1ccco1)NCCCc1ccccc1"
  measured: "-5.97% (inactive)"
- compound: "O=C(COC(=O)C1CC1)Nc1ccc(OC(F)F)cc1"
  measured: "4.41% (inactive)"
- compound: "CC(C)C[C@H]1CNC(=S)N1CC1CCCN1C[C@H](Cc1ccccc1)N1C[C@H](Cc2ccc(O)cc2)N(CC2CCCCC2)C1=S (some centres undefined)"
  measured: "-0.934% (inactive)"
- compound: "O=C(COC(=O)CNC(=O)c1ccc(Cl)cc1Cl)NCc1ccco1"
  measured: "-5.97% (inactive)"
- compound: "Cc1cccc(N2C(=O)N3[C@H](c4ccc(Br)cc4)[C@@H]4C(=O)N(C(C)(C)C)C(=O)[C@@H]4[C@]3(C)C2=O)c1"
  measured: "6.14% (inactive)"
- compound: "Cc1ccc(N2C(=O)C(Cc3ccc(O)cc3)NC2=S)cc1C (centres undefined)"
  measured: "-11.4% (inactive)"
